Assay: Oral bioavailability in Sprague-Dawley rat
Format: ADME, organism-based
Conditions: in vivo
property name: bioavailability (%)
Give just the numeric value; % need not be written.

Completed entries (count: 2):
- CN1CCCC1c1ccc(N2CC[C@H](NS(=O)(=O)/C=C/c3ccc(Cl)s3)C2=O)c(F)c1 (mixture of isomers): 41
- CN(C)C1CCc2cc(N3CC[C@H](NS(=O)(=O)/C=C/c4ccc(Cl)s4)C3=O)ccc21 (mixture of isomers): 57

We now examine a further compound.
Requested field: bioavailability. Item: O=C1[C@@H](NS(=O)(=O)c2ccc3cc(Cl)ccc3c2)CCN1c1ccc([C@@H]2CCCN2)cc1F
38
